Catalogue of half-life readings, one per entry.
assay: Metabolic stability in mouse liver microsomes assessed as half life; assay type: ADME, Microsome
ENDPOINT_NAME: half-life (min)

| SMILES_NOTATION | READING_UNIT | QUALIFIER_SYMBOL | TEST_VALUE |
| --- | --- | --- | --- |
| Cc1ccc(C)c(CS(=O)(=O)c2nnc(N3CCOCC3)o2)c1 | min | = | 3 |
| O=S(=O)(c1nnc(N2CCCCCC2)o1)C1CCCCC1 | min | = | 7 |
| O=S(=O)(c1nnc(N2CCOCC2)o1)C1CCCCC1 | min | = | 99 |
| CC1CCN(c2nnc(S(=O)(=O)Cc3ccc(Cl)c(Cl)c3)o2)CC1 | min | < | 2 |
| O=S(=O)(c1nnc(N2CCC3(CC2)COC3)o1)C1CCCCC1 | min | = | 18 |

###

tested on: Plasmodium falciparum; assay: Antimalarial activity against synchronous ring stage Plasmodium falciparum 3D7 infected in human Erythrocyte assessed as inhibition of parasite growth incubated for 96 hrs supplemented with IPP by [3H]-hypoxanthine incorporation assay; format: functional, organism-based; details: 3D7, Erythrocyte
pIC50: −log10 of the molar value.
Each entry below carries its reported pIC50.
ENDPOINT_NAME: pIC50

| SMILES_NOTATION | ENDPOINT_NAME | QUALIFIER_SYMBOL | TEST_VALUE |
| --- | --- | --- | --- |
| CC1CCN(c2nnc(S(=O)(=O)Cc3ccc(Cl)c(Cl)c3)o2)CC1 | pIC50 | = | 6.70 |
| O=S(=O)(c1nnc(N2CCOCC2)o1)C1CCCCC1 | pIC50 | = | 5.75 |
| Cc1ccc(C)c(CS(=O)(=O)c2nnc(N3CCOCC3)o2)c1 | pIC50 | = | 6.08 |
| CCC[C@@H]1C[C@@H](C(=O)N[C@@H]([C@H]2O[C@H](SC)[C@H](O)[C@@H](O)[C@H]2O)[C@H](C)Cl)N(C)C1 | pIC50 | < | 4.60 |

###

test: Selectivity ratio of IC50 for antimalarial activity against synchronous ring stage Plasmodium falciparum 3D7 infected in human Erythrocyte assessed as inhibition of parasite growth incubated for 96 hrs supplemented with IPP by [3H]-hypoxanthine incorporation assay to IC50 for antimalarial activity against synchronous ring stage Plasmodium falciparum 3D7 infected in human Erythrocyte assessed as …; assay type: functional

| SMILES_NOTATION | Ratio IC50 |
| --- | --- |
| CC1CCN(c2nnc(S(=O)(=O)Cc3ccc(Cl)c(Cl)c3)o2)CC1 | 1 |
| CCC[C@@H]1C[C@@H](C(=O)N[C@@H]([C@H]2O[C@H](SC)[C@H](O)[C@@H](O)[C@H]2O)[C@H](C)Cl)N(C)C1 | 3571 |
| O=S(=O)(c1nnc(N2CCOCC2)o1)C1CCCCC1 | 3 |
| Cc1ccc(C)c(CS(=O)(=O)c2nnc(N3CCOCC3)o2)c1 | 1 |

###

test: Selectivity ratio of IC50 for antimalarial activity against synchronous ring stage Plasmodium falciparum 3D7 infected in human Erythrocyte assessed as inhibition of parasite growth incubated for 48 hrs by [3H]-hypoxanthine incorporation assay to IC50 for antimalarial activity against synchronous ring stage Plasmodium falciparum 3D7 infected in human Erythrocyte assessed as inhibition of parasite growth incubated for 48 hrs by [3H]-hypoxanthine incorporation assay; assay type: functional
Cut-off 2 on Ratio IC50, inclusive. At or above means Y; below means N.

| MOLECULE | ANSWER_LABEL |
| --- | --- |
| O=S(=O)(c1nnc(N2CCC(C(F)(F)F)CC2)o1)C1CCCCC1 | Y |
| O=S(=O)(CC12CC3CC(CC(C3)C1)C2)c1nnc(N2CCCCC2)o1 | Y |
| Cl.O=S(=O)(c1nnc(N2CCOCC2)o1)C1CCNCC1 | N |
| O=S(=O)(c1nnc(N2CCOc3ccccc32)o1)C1CCCCC1 | Y |
| O=S(=O)(CC1(C(F)(F)F)CCC1)c1nnc(N2CCOCC2)o1 | Y |
| Cc1ccc(C)c(C[S+]([O-])c2nnc(N3CCOCC3)o2)c1 (stereo unspecified) | N |
| O=S(=O)(c1nnc(N2CCC(c3ccccc3)CC2)o1)C1CCCCC1 | Y |
| O=S(=O)(c1nnc(N2CCOCC2)o1)C1CCCCCC1 | Y |
| CC1(C)CN(c2nnc(S(=O)(=O)C3CCCCC3)o2)CCO1 | Y |
| O=S(=O)(c1nnc(N2C3CCCC2CC3)o1)C1CCCCC1 | Y |
| O=S(=O)(c1ccc(Cl)c(Cl)c1)c1nnc(N2CCOCC2)o1 | N |

###

Below, each entry is listed with its recorded selectivity ratio at 96 h.
assay: Selectivity index, ratio of IC50 for cytotoxicity against human NFF cells to IC50 for antimalarial activity against synchronous ring stage Plasmodium falciparum 3D7 infected in human Erythrocyte assessed as inhibition of parasite growth incubated for 96 hrs; format: toxicity, cell-based; details: read-out: Ratio IC50
ENDPOINT_NAME: selectivity ratio at 96 h

| COMPOUND | ENDPOINT_NAME | TEST_VALUE |
| --- | --- | --- |
| O=S(=O)(c1nnc(N2CCCOCC2)o1)C1CCCCC1 | selectivity ratio at 96 h | > 133 |
| C[C@@H]1CCC[C@H](C)N1c1nnc(S(=O)(=O)C2CCCCC2)o1 | selectivity ratio at 96 h | > 1670 |
| CC(C)(C)OC(=O)N1CCC(S(=O)(=O)c2nnc(N3CCOCC3)o2)CC1 | selectivity ratio at 96 h | > 20 |
| O=S(=O)(c1nnc(N2CCc3ccccc32)o1)C1CCCCC1 | selectivity ratio at 96 h | > 26 |
| O=S(=O)(c1nnc(N2CCC(F)(F)CC2)o1)C1CCCCC1 | selectivity ratio at 96 h | > 127 |
| O=S(=O)(c1nnc(N2CC3CC2CO3)o1)C1CCCCC1 (racemic) | selectivity ratio at 96 h | > 63 |
| O=S(=O)(c1nnc(N2CCC(C(F)(F)F)CC2)o1)C1CCCCC1 | selectivity ratio at 96 h | > 270 |
| C[C@@H]1CN(c2nnc(S(=O)(=O)C3CCCCC3)o2)C[C@H](C)O1 | selectivity ratio at 96 h | > 345 |
| O=S(=O)(c1nnc(N2CCCCCC2)o1)C1CCCCC1 | selectivity ratio at 96 h | > 1150 |
| O=S(=O)(c1nnc(N2CCCCC2)o1)C1CCCCC1 | selectivity ratio at 96 h | > 250 |
| CC1CCN(c2nnc(S(=O)(=O)C3CCCCC3)o2)CC1 | selectivity ratio at 96 h | > 227 |
| O=S(=O)(CC1CCC1)c1nnc(N2CCOCC2)o1 | selectivity ratio at 96 h | > 186 |
| CC1(C)CN(c2nnc(S(=O)(=O)C3CCCCC3)o2)CCO1 | selectivity ratio at 96 h | > 417 |
| CC1CCCN(c2nnc(S(=O)(=O)C3CCCCC3)o2)C1 (racemic) | selectivity ratio at 96 h | > 1000 |
| O=S(=O)(c1nnc(N2CCCC3(COC3)C2)o1)C1CCCCC1 | selectivity ratio at 96 h | > 185 |
| O=S(=O)(c1nnc(N2CCCC2)o1)C1CCCCC1 | selectivity ratio at 96 h | > 28 |
| O=S(=O)(c1nnc(N2CCOc3ccccc32)o1)C1CCCCC1 | selectivity ratio at 96 h | 10 |

###

assay: Cytotoxicity against human NFF cells assessed as reduction in cell viability incubated for 72 hrs by SRB assay; type: toxicity, cell-based
Form field: IC50 at 72 h (one value per entry).
ENDPOINT_NAME: IC50 at 72 h

| COMPOUND | TEST_VALUE |
| --- | --- |
| CCN(CC)CCCC(C)Nc1ccnc2cc(Cl)ccc12 (stereo not drawn) | 36.7 µM |
| O=S(=O)(c1nnc(N2CCC3(CC2)COC3)o1)C1CCCCC1 | > 100 µM |
| CC(C)(C)CS(=O)(=O)c1nnc(N2CCOCC2)o1 | > 100 µM |
| CCOC(=O)C1CCCN(c2nnc(S(=O)(=O)C3CCCCC3)o2)C1 (racemic) | > 100 µM |
| O=S(=O)(c1nnc(N2C3CCC2COC3)o1)C1CCCCC1 | > 100 µM |
| O=S(=O)(c1nnc(N2CCC3(CCCO3)CC2)o1)C1CCCCC1 | > 100 µM |
| Cc1ccc(C)c(CS(=O)(=O)c2nnc(N3CCOCC3)o2)c1 | 20.4 µM |
| O=S(=O)(c1nnc(N2CC3(CCOCC3)C2)o1)C1CCCCC1 | > 100 µM |
| O=S(=O)(CC1CCC1)c1nnc(N2CCOCC2)o1 | > 100 µM |
| O=S(=O)(c1nnc(N2CCC(C(F)(F)F)CC2)o1)C1CCCCC1 | > 100 µM |
| O=S(=O)(CC1CCCC1)c1nnc(N2CCOCC2)o1 | > 100 µM |
| O=S(=O)(c1nnc(N2CC3CC2CO3)o1)C1CCCCC1 (racemic) | > 100 µM |
| O=S(=O)(c1nnc(N2CCCCC2)o1)C1CCCCC1 | > 100 µM |
| CC1(C)CCCN(c2nnc(S(=O)(=O)C3CCCCC3)o2)C1 | > 100 µM |
| O=S(=O)(c1nnc(N2CCOCC2)o1)C1CCOCC1 | > 100 µM |
| O=S(=O)(c1nnc(N2CCOc3ccccc32)o1)C1CCCCC1 | 21.4 µM |
| CC1(C)CN(c2nnc(S(=O)(=O)C3CCCCC3)o2)CCO1 | > 100 µM |
| CC1CC(C)CN(c2nnc(S(=O)(=O)C3CCCCC3)o2)C1 (mixture of isomers) | > 100 µM |
| O=S(=O)(c1nnc(N2CC3CCC(C2)O3)o1)C1CCCCC1 | > 100 µM |
| CC1CCCN(c2nnc(S(=O)(=O)C3CCCCC3)o2)C1 (racemic) | > 100 µM |
| O=S(=O)(c1nnc(N2CCC(F)(F)CC2)o1)C1CCCCC1 | > 100 µM |
| O=S(=O)(c1nnc(N2CCOCC2)o1)C1CCCCC1 | > 100 µM |
| O=S(=O)(c1nnc(N2C3CCCC2CC3)o1)C1CCCCC1 | > 100 µM |
| O=S(=O)(c1nnc(N2C3CCC2CC3)o1)C1CCCCC1 | 33.5 µM |
| CC1CCN(c2nnc(S(=O)(=O)Cc3ccc(Cl)c(Cl)c3)o2)CC1 | 26 µM |
| CC1CCN(c2nnc(S(=O)(=O)C3CCCCC3)o2)CC1 | > 50 µM |
| CC(C)(C)OC(=O)[C@@H]1CCCN1c1nnc(S(=O)(=O)C2CCCCC2)o1 | > 100 µM |
| O=S(=O)(CC12CC3CC(CC(C3)C1)C2)c1nnc(N2CCCCC2)o1 | 30.5 µM |
| N#CC1CCN(c2nnc(S(=O)(=O)C3CCCCC3)o2)CC1 | > 100 µM |
| O=S(=O)(c1nnc(N2CCCCCC2)o1)C1CCCCC1 | > 100 µM |
| CC1CN(c2nnc(S(=O)(=O)C3CCCCC3)o2)CCO1 (racemic) | > 100 µM |
| O=S(=O)(CC1CCCCC1)c1nnc(N2CCOCC2)o1 | 59 µM |
| O=S(=O)(c1nnc(N2CCOCC2)o1)C1CC2CCC1C2 (racemic) | > 100 µM |
